- Tested on: cancer cell lines from the cancer cell line encyclopedia (CCLE)
- protocol-notes: Cell line profiling (CLiP) proliferation experiment
- Format: cell-based
- condition-notes: BICR 6 cells; read-out: Inflection Point
recorded-metric: EC50
Field note: include the unit after the figure.

In: Return EC50 (reported value) for this compound: CC(C)[C@@]12C[C@@H](O)[C@@](C)(O1)[C@@H]1CC[C@@H](C)[C@H]1[C@@H]2OC(=O)/C=C/c1ccccc1
Out: 23 µM

###

- Tested on: cancer cell lines from the cancer cell line encyclopedia (CCLE)
- protocol-notes: Cell line profiling (CLiP) proliferation experiment
- Assay type: cell-based
- condition-notes: Homo sapiens, RS4-11, cell line RS4;11, haematopoietic_and_lymphoid_tissue, acute_lymphoblastic_B_cell_leukaemia; read-out: Crossing Point
recorded-metric: IC50 (µM)
I only need the number, in µM, no unit after it.

In: Return IC50 (reported value) for this molecule: CC(C)[C@@]12C[C@@H](O)[C@@](C)(O1)[C@@H]1CC[C@@H](C)[C@H]1[C@@H]2OC(=O)/C=C/c1ccccc1 [Englerin B]
Out: 17.9
